Where do the numbers come from? From PubChem BioAssay.

Test system: Human papillomavirus type 1a protein E7 (residues 44-93)
protocol details: HPV1a E7 fragment binders on microarrays, primary screen, biochemical, small-molecule microarray, residues 44-93, 635 nm fluorescence (AID 1108);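 note: E7 fragment applied at 1 µg/mL in TBST for 1 h at 4 C; score combines spot fluorescence with its signal to noise ratio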
experimental conditions: small-molecule microarray binding, fluorescence 635 nm; higher = more signal
Quick rule: composite z-score of at least 0.5 means y, below that means n.

Query: Would you say CO[C@@H]1COC(=O)[C@H](COCc2ccccc2)NC(=O)CC=C[C@@H](C)[C@H](OC)COC(=O)[C@@H](C)NC(=O)CC=C[C@H]1C shows composite z-score at minimum 0.5?
Response: n

Query: Would you say CC(C)=CCCC(C)=CCON=C1C[C@@H](O)[C@@H](O)[C@@H]2[C@@H]3C(=O)N(C4CCCCC4)C(=O)[C@@H]3CC[C@H]12 shows composite z-score at minimum 0.5?
Response: y

Query: Would you say CCN1C(=O)[C@H]2[C@H]3[C@H](O)[C@H](O)CC(=NNC(=O)OCc4ccccc4)[C@H]3CC[C@H]2C1=O shows composite z-score at minimum 0.5?
Response: y

Query: Would you say CC(=O)OC[C@H]1O[C@H](C#CCC2CCCCC2)C=C[C@@H]1OC(C)=O shows composite z-score at minimum 0.5?
Response: y

Query: Would you say O=C1C[C@@H](O)[C@@H](O)[C@@H]2[C@@H]3C(=O)N(c4ccc(F)cc4F)C(=O)[C@@H]3CC[C@H]12 shows composite z-score at minimum 0.5?
Response: n

Query: Would you say CCOC(=O)[C@H](CC(C)C)NC(=O)CCC1CC(OC(=O)NCc2ccc3c(c2)OCO3)CC2(CCCC(COC(=O)NCc3ccccc3)O2)O1 (some centres not stated) shows composite z-score at minimum 0.5?
Response: y
